Assign maximal ATPase activity (turnover) to each entry below.
target: mouse TAPL ΔTMD0 (Mus musculus, UniProt Q9JJ59); construct: thrombin cleavage site (C); eGFP (C); 10XHis (C); made in house; host or cells: Trichoplusia ni High Five (Hi5) insect cells, baculovirus (pVL1393); assay: Lipid-stimulated ATPase assay, DM-purified ΔTMD0; format: biochemical; conditions: lipid stimulation, 3 mM ATP
Report only the number, with the unit min⁻¹ understood.

stdin: Any idea what maximal ATPase activity (turnover) was measured for CCCCCCCC/C=C\CCCCCCCC(=O)O[C@H](COC(=O)CCCCCCCCCCCCCCC)COP(=O)(O)OCC(O)CO (mixture of isomers) ?
stdout: 155

stdin: Moving on to the next compound: "CCCCCCCC/C=C\CCCCCCCC(=O)O[C@H](COC(=O)CCCCCCCCCCCCCCC)COP(=O)(O)OC[C@H](N)C(=O)O"
stdout: 109

stdin: Moving on to the next compound: CCCCCCCC/C=C\CCCCCCCC(=O)OC(COC(=O)CCCCCCCCCCCCCCC)COP(=O)([O-])OCC[N+](C)(C)C (stereo not shown)
stdout: 88

stdin: Moving on to the next compound: CC(C)CCC[C@@H](C)[C@H]1CC[C@H]2[C@@H]3CC=C4C[C@@H](OC(=O)CCC(=O)O)CC[C@]4(C)[C@H]3CC[C@]12C [CHS, cholesteryl hemisuccinate]
stdout: 80

###

Assign maximal ATPase activity (Vmax) to each entry below.
target: mouse TAPL ΔTMD0 (Mus musculus); construct: thrombin cleavage site (C); eGFP (C); 10XHis (C); made in house; host or cells: Trichoplusia ni High Five (Hi5) insect cells, baculovirus (pVL1393); experiment: Lipid-stimulated ATPase assay, DM-purified ΔTMD0; format: biochemical; settings: lipid stimulation, 3 mM ATP; means ± SEM
Report only the number, with the unit nmol/mg/min understood.

stdin: Any idea what maximal ATPase activity (Vmax) was measured for CCCCCCCC/C=C\CCCCCCCC(=O)OC(COC(=O)CCCCCCCCCCCCCCC)COP(=O)([O-])OCC[N+](C)(C)C (stereo not shown) [POPC] ?
stdout: 649

stdin: Moving on to the next compound: CCCCCCCC/C=C\CCCCCCCC(=O)O[C@H](COC(=O)CCCCCCCCCCCCCCC)COP(=O)(O)OCC(O)CO (mixture of isomers) [POPG]
stdout: 1147

stdin: Moving on to the next compound: CC(C)CCC[C@@H](C)[C@H]1CC[C@H]2[C@@H]3CC=C4C[C@@H](OC(=O)CCC(=O)O)CC[C@]4(C)[C@H]3CC[C@]12C [CHS, cholesteryl hemisuccinate]
stdout: 589

stdin: Moving on to the next compound: CCCCCCCC/C=C\CCCCCCCC(=O)O[C@H](COC(=O)CCCCCCCCCCCCCCC)COP(=O)(O)OC[C@H](N)C(=O)O [POPS]
stdout: 808

###

biological target: mouse TAPL ΔTMD0 (Mus musculus); construct: thrombin cleavage site (C); eGFP (C); 10XHis (C); made in house; host or cells: Trichoplusia ni High Five (Hi5) insect cells, baculovirus (pVL1393); assay: Dithionite-based flip-flop (floppase) assay of NBD*-labeled lipids, ΔTMD0 proteoliposomes; assay type: biochemical; conditions: NBD*-labeled lipid; PE, PG, PC and cholesterol data not shown
MEASURED_PARAMETER: ATP-dependent lipid transport by ΔTMD0

| COMPOUND | RECORDED_VALUE |
| --- | --- |
| CCCCCCCC/C=C\CCCCCCCC(=O)OC[C@H](COP(=O)(O)OCCN)OC(=O)CCCCCNc1ccc([N+](=O)[O-])c2nonc12 [NBD*-PE] | very low |
| CCCCCCCC/C=C\CCCCCCCC(=O)OC[C@H](COP(=O)([O-])OCC[N+](C)(C)C)OC(=O)CCCCCNc1ccc([N+](=O)[O-])c2nonc12 [NBD*-PC] | very low |
| CCCCCCCC/C=C\CCCCCCCC(=O)OC[C@H](COP(=O)(O)OC[C@H](N)C(=O)O)OC(=O)CCCCCNc1ccc([N+](=O)[O-])c2nonc12 [NBD*-PS] | high |
| CCCCCCCC/C=C\CCCCCCCC(=O)OC[C@H](COP(=O)(O)OCC(O)CO)OC(=O)CCCCCNc1ccc([N+](=O)[O-])c2nonc12 (mixture of isomers) [NBD*-PG] | very low |

This collection of values is drawn from paper PMC9532399.
